protocol-details: in vivo
test-conditions: mouse, po, 20 mg/kg
Description: AUC (0 to t) in mouse at 20 mg/kg, po
reported-property: AUC(0-t) (ng·h/mL)
# unit: ng·h/mL | format: bare number

Value of AUC(0-t) reported for the compound `COc1ccccc1CCP(=O)(O)[C@@H](N)CCC(=O)O` is 37.6

----------
test-system: UniProt:P16406
Sequence (P16406 whole entry): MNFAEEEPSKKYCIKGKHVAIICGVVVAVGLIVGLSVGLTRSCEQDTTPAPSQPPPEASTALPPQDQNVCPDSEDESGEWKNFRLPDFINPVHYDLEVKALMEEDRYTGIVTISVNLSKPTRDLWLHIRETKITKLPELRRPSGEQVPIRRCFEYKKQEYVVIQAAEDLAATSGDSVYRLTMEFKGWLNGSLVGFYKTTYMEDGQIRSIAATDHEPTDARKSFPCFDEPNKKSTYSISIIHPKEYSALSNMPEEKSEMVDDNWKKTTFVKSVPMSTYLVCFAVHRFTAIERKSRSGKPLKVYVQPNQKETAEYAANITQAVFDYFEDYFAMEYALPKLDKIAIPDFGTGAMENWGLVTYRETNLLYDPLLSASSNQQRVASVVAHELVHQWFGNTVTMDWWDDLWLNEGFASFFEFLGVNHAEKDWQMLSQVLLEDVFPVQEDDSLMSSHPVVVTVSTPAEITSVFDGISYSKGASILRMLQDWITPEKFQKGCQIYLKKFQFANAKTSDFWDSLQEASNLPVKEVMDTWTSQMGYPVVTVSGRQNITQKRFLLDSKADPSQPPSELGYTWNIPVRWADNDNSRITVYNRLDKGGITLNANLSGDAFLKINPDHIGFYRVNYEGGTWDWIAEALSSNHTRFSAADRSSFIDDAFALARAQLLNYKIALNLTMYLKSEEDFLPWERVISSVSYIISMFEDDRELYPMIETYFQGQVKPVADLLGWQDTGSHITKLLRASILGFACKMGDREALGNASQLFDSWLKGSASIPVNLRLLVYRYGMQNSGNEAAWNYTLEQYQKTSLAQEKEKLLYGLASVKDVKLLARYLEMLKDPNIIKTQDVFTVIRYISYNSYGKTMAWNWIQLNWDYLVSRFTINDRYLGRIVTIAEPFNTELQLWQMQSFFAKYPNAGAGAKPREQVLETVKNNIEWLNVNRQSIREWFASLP
protocol-details: Inhibition of recombinant mouse aminopeptidase A activity
Field: IC50. Provide a value for each of the compounds that follow.
Note: unit nM is implicit; provide only the numeric part.

IC50 reading for NC(CCC(=O)O)P(=O)(O)CCc1ccccc1OC(F)(F)F (configuration not stated) : 26

Reported IC50 of COc1ccccc1CCP(=O)(O)C(N)CCC(=O)O (configuration not stated) : 9

IC50 reported for this compound NC(CCC(=O)O)P(=O)(O)CCc1ccccc1Oc1ccccc1 (configuration not stated) : 10

The compound identified as NC(CCC(=O)O)P(=O)(O)CCC1CCCCC1 (configuration not stated) registered its IC50 at 41

Lookup result for NC(CCC(=O)O)P(=O)(O)CCc1ccc2ccccc2c1 (configuration not stated) ; measured IC50: 21

Looking up Cn1cc(CCP(=O)(O)C(N)CCC(=O)O)c2ccccc21 (configuration not stated) , I found its IC50 recorded as 30

GET /value?item= NC(CCP(=O)(O)O)P(=O)(O)CCc1ccccc1 (racemic) &field=IC50 returns 5400

According to the records, this compound Cc1cccc(CCP(=O)(O)C(N)CCC(=O)O)c1 (configuration not stated) displays IC50 of 27

The compound listed as COc1c(Cl)cccc1CCP(=O)(O)C(N)CCC(=O)O (configuration not stated) has a reported IC50 of 54

Consider NC(CCS(=O)(=O)O)P(=O)(O)CCc1ccccc1 (racemic) . Its measured IC50 is 310

Lab note: measured IC50 of NC(CCC(=O)O)P(=O)(O)CCc1cccc2ccccc12 (configuration not stated) was 7

IC50 reading for NC(CCC(=O)O)P(=O)(O)CCn1ncc2ccccc21 (configuration not stated) : 420
